system: B16-F10; assay: Alamar Blue cytotoxicity; assay type: cell-based, mouse; details: Mus musculus, B16-F10, 72 h
Assay readout: IC50 (nM)
Give just the number in nM; leave the unit off.

Any idea what IC50 was measured for COc1cccc2c1C(=O)c1c(O)c3c(c(O)c1C2=O)C[C@@](O)(C(=O)CO)C[C@@H]3O[C@H]1C[C@H](N)[C@H](O)[C@H](C)O1 ?
430

###

system: MDA-MB-231; test: Alamar Blue cytotoxicity; assay type: cell-based, human; conditions: Homo sapiens, MDA-MB-231, 72 h
Assay readout: IC50 (nM)
Your answer is read as nM, so omit the unit and give the number.

Dear colleague, I am looking for the recorded IC50 of the following compound: COc1cccc2c1C(=O)c1c(O)c3c(c(O)c1C2=O)C[C@@](O)(C(=O)CO)C[C@@H]3O[C@H]1C[C@H](N)[C@H](O)[C@H](C)O1 [Doxorubicin]
430

###

system: HepG2; assay: Alamar Blue cytotoxicity; type: cell-based, human; settings: Homo sapiens, HepG2, 72 h
Assay readout: pIC50
Note on pIC50: it is the negative log10 of concentration, concentration in mol/L.

Return reported pIC50; argument: COc1cccc2c1C(=O)c1c(O)c3c(c(O)c1C2=O)C[C@@](O)(C(=O)CO)C[C@@H]3O[C@H]1C[C@H](N)[C@H](O)[C@H](C)O1 [Doxorubicin]
6.49

###

System: MCF-7
Experiment: Alamar Blue cytotoxicity
Format: cell-based, human
Details: Homo sapiens, MCF7; MCF-7, 72 h
Experimental: The Alamar Blue assay was used to measure cell viability, as previously described. Adherent cells were seeded in 96-well plates at a density of 7 × 10^3 cells per well, and suspended cells were seeded at 3 × 10^4 cells per well. […] The absorbance at 570 and 600 nm was measured using a SpectraMax 190 microplate reader (Molecular Devices, Sunnyvale, CA, USA).
Assay readout: pIC50
Please express pIC50 as -log10 of the molar concentration.

Fill blank: measured pIC50 of the compound COc1cccc2c1C(=O)c1c(O)c3c(c(O)c1C2=O)C[C@@](O)(C(=O)CO)C[C@@H]3O[C@H]1C[C@H](N)[C@H](O)[C@H](C)O1 is ____.
5.64

###

test system: CAL 27; assay: Alamar Blue cytotoxicity; format: cell-based, human; details: Homo sapiens; CAL 27, 72 h
Assay readout: IC50
Answer format: number, then unit.

Could you share what IC50 was measured for COc1cccc2c1C(=O)c1c(O)c3c(c(O)c1C2=O)C[C@@](O)(C(=O)CO)C[C@@H]3O[C@H]1C[C@H](N)[C@H](O)[C@H](C)O1 , tested on CAL 27?
0.11 µM

###

system: HSC-3; test: Alamar Blue cytotoxicity; type: cell-based, human; conditions: Homo sapiens, HSC-3, 72 h
Assay readout: IC50 (nM)
Respond with the bare value in nM.

Which IC50 is reported for this molecule? COc1cccc2c1C(=O)c1c(O)c3c(c(O)c1C2=O)C[C@@](O)(C(=O)CO)C[C@@H]3O[C@H]1C[C@H](N)[C@H](O)[C@H](C)O1
690

###

system: SCC-25; assay: Alamar Blue cytotoxicity; assay type: cell-based, human; conditions: Homo sapiens, SCC-25, 72 h
Assay readout: IC50 (nM)
Dear colleague, please return just the value in nM, with no unit written.

For the record COc1cccc2c1C(=O)c1c(O)c3c(c(O)c1C2=O)C[C@@](O)(C(=O)CO)C[C@@H]3O[C@H]1C[C@H](N)[C@H](O)[C@H](C)O1 , what value of IC50 is listed for SCC-25?
1440
